Listed below: kcat values for each entry.
substrate: O=C1CCC/C1=C\c1ccccc1; assay: purified protein; assay type: biochemical, Bacillus subtilis; conditions: 1.0 mM NADPH, 10 μM enzyme, PBS 100 mM, pH 7.5, 30 °C
Quick reminder: number only, in s⁻¹, skip the unit.

protein	u	assayValue
YqjM (Bacillus subtilis subsp. subtilis str. 168; I69G) (protein, ene-reductase, FMN enzyme) ARKLFTPITIKDMTLKNRIVMSPMCMYSSHEKDGKLTPFHMAHYISRAIGQVGLIIVEASAVNPQGRGTDQDLGIWSDEHIEGFAKLTEQVKEQGSKIGIQLAHAGRKAELEGDIFAPSAIAFDEQSATPVEMSAEKVKETVQEFKQAAARAKEAGFDVIEIHAAHGYLIHEFLSPLSNHRTDEYGGSPENRYRFLREIIDEVKQVWDGPLFVRVSASDYTDKGLDIADHIGFAKWMKEQGVDLIDCSSGALVHADINVFPGYQVSFAEKIREQADMATGAVGMITDGSMAEEILQNGRADLIFIGRELLRDPFFARTAAKQLNTEIPAPVQYERGW	s⁻¹	0.39

Could you tell me which kcat is on file for YqjM (Bacillus subtilis subsp. subtilis str. 168; I69Y) (protein, ene-reductase, FMN enzyme) ARKLFTPITIKDMTLKNRIVMSPMCMYSSHEKDGKLTPFHMAHYISRAIGQVGLIIVEASAVNPQGRYTDQDLGIWSDEHIEGFAKLTEQVKEQGSKIGIQLAHAGRKAELEGDIFAPSAIAFDEQSATPVEMSAEKVKETVQEFKQAAARAKEAGFDVIEIHAAHGYLIHEFLSPLSNHRTDEYGGSPENRYRFLREIIDEVKQVWDGPLFVRVSASDYTDKGLDIADHIGFAKWMKEQGVDLIDCSSGALVHADINVFPGYQVSFAEKIREQADMATGAVGMITDGSMAEEILQNGRADLIFIGRELLRDPFFARTAAKQLNTEIPAPVQYERGW ?
0.65
